assay.target: OsSMF1 (Oryza sativa, UniProt Q6ZLB0 1-436)
Sequence: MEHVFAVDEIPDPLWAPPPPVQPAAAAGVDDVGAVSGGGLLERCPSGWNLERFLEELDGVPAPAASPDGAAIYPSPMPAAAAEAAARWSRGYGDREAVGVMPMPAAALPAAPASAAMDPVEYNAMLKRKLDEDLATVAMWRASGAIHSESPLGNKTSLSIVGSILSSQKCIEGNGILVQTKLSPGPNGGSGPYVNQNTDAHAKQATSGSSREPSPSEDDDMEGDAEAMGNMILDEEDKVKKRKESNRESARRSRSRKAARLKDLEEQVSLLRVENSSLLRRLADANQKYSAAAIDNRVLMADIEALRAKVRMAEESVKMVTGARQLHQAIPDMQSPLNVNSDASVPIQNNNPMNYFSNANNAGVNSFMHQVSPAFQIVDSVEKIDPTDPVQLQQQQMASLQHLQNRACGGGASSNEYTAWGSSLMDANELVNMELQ
assay.comment: protein-binding microarray (RPBM); PBS, 2% BSA, 51.3 ng/ul salmon testes DNA, 50 uM zinc acetate, 200 nM TF, 25 C, 1 h; high values mean tight binding
stated.conditions: protein: recombinant; tags: N-terminal polyhistidine and DsRed monomer fusion (pET32a); chain copies: 2; label: CyDye5-dUTP incorporated in the synthesized complementary strand; 3' TTTTT single-stranded linker to array surface; dsDNA, one strand shown
The full ranking holds about 39,000 sequences; the median of “fluorescence intensity (a.u.)” is about 4,300, and the highest 2% start at about 39,000. For the sample, the highest values were picked, then their nearest neighbours and some sequences at random.
parameter: binding signal

Study these solved cases before continuing.
# entry.sequence, assay.target, reported.result
rows = [
    ("CGCGGCAGATCCGCTGGTTGTGGCGGCGTCAGCGGTAGCCCGGAGTCACCTAGTGCAG", "OsSMF1 (Oryza sativa, UniProt Q6ZLB0 1-436)", "4030 fluorescence intensity (a.u.)"),
    ("GACTTAACTTTAGTCCCTGTATTTAGACACTAATTTAGAGCGGAGTCACCTAGTGCAG", "OsSMF1 (Oryza sativa, UniProt Q6ZLB0 1-436)", "65500 fluorescence intensity (a.u.)"),
    ("CAAATTTTAATCCTAGAAAAGCTTATATTTGAAGGAGAAGCGGAGTCACCTAGTGCAG", "OsSMF1 (Oryza sativa, UniProt Q6ZLB0 1-436)", "31100 fluorescence intensity (a.u.)"),
    ("TTTTGGGCCTCCTGTGACCTACATGGGCCGCACTTCTTTCCGGAGTCACCTAGTGCAG", "OsSMF1 (Oryza sativa, UniProt Q6ZLB0 1-436)", "25900 fluorescence intensity (a.u.)"),
    ("GTATATGCGTCATGTGCGTCTTCCCTGTCACGAGTGCGTGCGGAGTCACCTAGTGCAG", "OsSMF1 (Oryza sativa, UniProt Q6ZLB0 1-436)", "7200 fluorescence intensity (a.u.)"),
    ("ACCTCTTGCTGCTGCTCATTCTGATGTCATTCAAAGAGATCGGAGTCACCTAGTGCAG", "OsSMF1 (Oryza sativa, UniProt Q6ZLB0 1-436)", "4480 fluorescence intensity (a.u.)"),
    ("ACATGTGGGTCCTGTTGACATGTAGGTGCCACCTTGGCATCGGAGTCACCTAGTGCAG", "OsSMF1 (Oryza sativa, UniProt Q6ZLB0 1-436)", "4440 fluorescence intensity (a.u.)"),
    ("GTAGCTGTTAAGTTCCATCTCGTCAGCAGCTGCCTGCAGACGGAGTCACCTAGTGCAG", "OsSMF1 (Oryza sativa, UniProt Q6ZLB0 1-436)", "3210 fluorescence intensity (a.u.)"),
]

For every listed record, write down its binding signal.
1. CGTCGTGCCTACGGGCCGTTCGCGTGTCGTGTCGGCCCAACGGAGTCACCTAGTGCAG
2. CAGCTACAGGACGGCAGTACCCAGTACACGCACGCGTACCCGGAGTCACCTAGTGCAG
3. CAGGTACTTAACTTTAGTCCCTGTCTTTAGACACTAATTTCGGAGTCACCTAGTGCAG
4. CTGTTGCCTACTCCCTCCTCAATCCTGCAGAAGTTTCTGACGGAGTCACCTAGTGCAG

3850 fluorescence intensity (a.u.)
3640 fluorescence intensity (a.u.)
5100 fluorescence intensity (a.u.)
3240 fluorescence intensity (a.u.)
